This collection of values is drawn from patent US6989387B2.

# melting point annotations

Examples with their reported melting point follow.
[
  {
    "molecule": "CN(C)CCn1c(=O)c2cccc([N+](=O)[O-])c2c2cnc3cc4c(cc3c21)OCO4 [Compound 6a]",
    "melting point": "189 to 190 °C"
  },
  {
    "molecule": "CN(C)CCn1c(=O)c2cc([N+](=O)[O-])ccc2c2cnc3cc4c(cc3c21)OCO4 [Compound 4a]",
    "melting point": "219 to 220 °C"
  },
  {
    "molecule": "CN(C)CCn1c(=O)c2ccc(N)cc2c2cnc3cc4c(cc3c21)OCO4 [Compound 5b]",
    "melting point": "300 to 301 °C"
  }
]

Q: Entry CN(C)CCn1c(=O)c2cccc(N)c2c2cnc3cc4c(cc3c21)OCO4 [Compound 6b] has what melting point?
A: 223 to 224 °C

Q: // next record CN(C)CCn1c(=O)c2cc(N)ccc2c2cnc3cc4c(cc3c21)OCO4 [Compound 4b]
A: 245 to 246 °C

Q: Now this one: CN(C)CCn1c(=O)c2ccc([N+](=O)[O-])cc2c2cnc3cc4c(cc3c21)OCO4 [Compound 5a]
A: 258 to 259 °C

====

# measured.target: human topoisomerase I (Homo sapiens)
# Construct: unnamed fusion partner (recombinant fusion protein, T7 expression system); made in house; host or cells: E. coli
# Sequence (P11387 whole entry, the tested form may be a part): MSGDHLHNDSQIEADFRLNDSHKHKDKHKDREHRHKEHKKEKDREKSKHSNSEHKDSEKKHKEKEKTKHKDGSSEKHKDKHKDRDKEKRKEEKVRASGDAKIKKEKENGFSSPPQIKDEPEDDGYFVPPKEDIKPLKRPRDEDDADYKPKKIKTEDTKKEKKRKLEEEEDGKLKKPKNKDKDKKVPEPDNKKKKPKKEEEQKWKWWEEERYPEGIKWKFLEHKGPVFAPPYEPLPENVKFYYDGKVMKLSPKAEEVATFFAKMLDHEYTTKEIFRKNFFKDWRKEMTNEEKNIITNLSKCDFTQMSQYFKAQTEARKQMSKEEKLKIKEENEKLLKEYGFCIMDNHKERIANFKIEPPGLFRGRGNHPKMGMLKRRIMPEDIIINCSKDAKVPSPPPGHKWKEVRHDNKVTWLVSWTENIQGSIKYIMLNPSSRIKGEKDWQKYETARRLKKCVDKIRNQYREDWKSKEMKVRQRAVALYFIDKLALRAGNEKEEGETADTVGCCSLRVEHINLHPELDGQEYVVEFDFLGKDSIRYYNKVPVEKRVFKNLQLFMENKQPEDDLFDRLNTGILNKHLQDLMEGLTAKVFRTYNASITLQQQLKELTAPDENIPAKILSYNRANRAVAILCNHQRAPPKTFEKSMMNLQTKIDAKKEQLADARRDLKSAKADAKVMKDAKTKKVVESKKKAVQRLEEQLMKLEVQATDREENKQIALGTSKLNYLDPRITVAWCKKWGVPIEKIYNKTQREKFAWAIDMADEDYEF
# experiment: Test A: topoisomerase I-mediated DNA cleavage assay
# Format: biochemical
# condition.summary: relative effective concentration, relative to topotecan = 1, producing the same cleavage of plasmid DNA in presence of human TOP1
reported.endpoint: TOP1-mediated DNA Cleavage (REC)

Below, 7 compounds whose answers are already recorded.
[
  {
    "compound": "CN(C)CCn1c(=O)c2ccc([N+](=O)[O-])cc2c2cnc3cc4c(cc3c21)OCO4 [Compound 5a]",
    "TOP1-mediated DNA Cleavage (REC)": 0.1
  },
  {
    "compound": "CN(C)CCn1c(=O)c2ccc(N)cc2c2cnc3cc4c(cc3c21)OCO4 [Compound 5b]",
    "TOP1-mediated DNA Cleavage (REC)": 0.5
  },
  {
    "compound": "CN(C)CCn1c(=O)c2ccccc2c2cnc3cc4c(cc3c21)OCO4 [Compound 3, reference compound]",
    "TOP1-mediated DNA Cleavage (REC)": 6
  },
  {
    "compound": "CN(C)CCn1c(=O)c2cc(N)ccc2c2cnc3cc4c(cc3c21)OCO4 [Compound 4b]",
    "TOP1-mediated DNA Cleavage (REC)": 8.0
  },
  {
    "compound": "CN(C)CCn1c(=O)c2cccc([N+](=O)[O-])c2c2cnc3cc4c(cc3c21)OCO4 [Compound 6a]",
    "TOP1-mediated DNA Cleavage (REC)": 1000
  },
  {
    "compound": "CC[C@@]1(O)C(=O)OCc2c1cc1n(c2=O)Cc2cc3c(CN(C)C)c(O)ccc3nc2-1 [Topotecan, reference compound]",
    "TOP1-mediated DNA Cleavage (REC)": 1
  },
  {
    "compound": "CC[C@@]1(O)C(=O)OCc2c1cc1n(c2=O)Cc2cc3ccccc3nc2-1 [Camptothecin, reference compound]",
    "TOP1-mediated DNA Cleavage (REC)": 0.5
  }
]

[a] CN(C)CCn1c(=O)c2cccc(N)c2c2cnc3cc4c(cc3c21)OCO4 [Compound 6b]
[b] CN(C)CCn1c(=O)c2cc([N+](=O)[O-])ccc2c2cnc3cc4c(cc3c21)OCO4 [Compound 4a]
Q: Lab notebook, comparison: a versus b , higher TOP1-mediated DNA Cleavage (REC) goes to which? The response must carry the label of the picked entry.
A: a
